Where these numbers come from: PubChem BioAssay AID588850

Test: NF-kB reporter blockers in CF airway cells – cell-based, GFP fluorescence, uHTS, primary screen (AID 588850);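 note: PAF is a Pseudomonas aeruginosa culture filtrate used as stimulus; plate controls were PAF-stimulated DMSO wells for no effect and unstimulated DMSO wells for full effect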
Conditions: KKLEB NF-kB-GFP reporter, PAF-induced, GFP fluorescence overnight; at 5 µM
Screen size: about 360,000 compounds; about 3,100 (0.86%) were called active.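 Rule for the calls: active = at least 50% inhibition at 5 µM, scaled per plate between neutral and stimulator controls; inactive = the rest.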 The sample holds actives, similar compounds and a random draw of the others, so the mix is not that of the screen.
Could you please pick one outcome from this set? class 1 for active, class 0 for inactive

Please review the following examples before continuing.
- Compound: "Cc1cccc(CN2CCC(CNC(=O)Nc3ccc(F)c(Cl)c3)CC2)c1"
  Class name: "class 0"
- Compound: "C[C@H]1Cn2cnc(C(=O)N[C@H](C)c3ccccc3)c2C(=O)N1"
  Class name: "class 0"
- Compound: "OCCNc1nc(Nc2ccc(Cl)c(Cl)c2)nc2ccccc12"
  Class name: "class 1"
- Compound: "O=C(CN1CCOCC1)N1CCCc2c1c(=O)oc1ccc(OCc3ccccc3)cc21"
  Class name: "class 0"
- Compound: "CC(C)C(=O)Nc1c2c(nn1-c1ccccc1)CSC2"
  Class name: "class 0"
- Compound: "CC(=O)c1c(OCC(=O)N(C)C2CCCCC2)ccc2c(C)cc(=O)oc12"
  Class name: "class 0"

*Q* Could you kindly confirm the outcome this assay logged for `Oc1cccc2cc(-c3ccncc3)cnc12` ?
*A* class 0

*Q* Lookup `O=C(CSc1nnc(-c2ccoc2)o1)N1CCOCC1`
*A* class 0

*Q* Lookup `Cc1oc2c(F)c(F)c(F)c(F)c2c1S(=O)(=O)Nc1cccc(C(F)(F)F)c1`
*A* class 1

*Q* Lookup `OC[C@@H]1CN(C2CCCC2)C[C@H](n2cnc3c(NC4CCC4)ncnc32)O1`
*A* class 0

*Q* Lookup `COc1ccc(/C=C/c2nnc(NC(=O)C(C)C)s2)cc1`
*A* class 0

*Q* Lookup COc1ccc(N(C(=O)c2snc(C(N)=O)c2N)C(C(=O)NC2CCCC2)c2ccco2)cc1OC (configuration not stated)
*A* class 0

*Q* Lookup `CSCC[C@H](NC(=O)NC1CCCC1)C(=O)O`
*A* class 0

*Q* Lookup Cc1cccc(NC(=O)CCN2CC(C)CC(C)C2)c1 (configuration not stated)
*A* class 0

*Q* Lookup `O=Cc1c(NCCc2cccc(F)c2)c2ccccc2[nH]c1=O`
*A* class 0

*Q* Lookup `O=C(CSc1ccccc1)Nc1nnc(/C=C/c2ccccc2)s1`
*A* class 0

*Q* Lookup `CCCCOc1ccc(C(=O)NCC(=O)OCC(=O)N2CCN(S(=O)(=O)c3ccc(C)cc3C)CC2)cc1`
*A* class 0

*Q* Lookup `COc1ccccc1C(=O)Nc1nc2nc(-c3ccccc3)cc(=O)n2[nH]1`
*A* class 0

*Q* Lookup `Cc1ccc(S(=O)(=O)N2C[C@H]3n4c(=O)ccc(=O)n4C[C@H](OC(=O)NC4CCCC4)[C@@]3(O)C2)cc1`
*A* class 0

*Q* Lookup `CCCCn1c(N)c(N(CC(C)C)C(=O)c2ccc(-n3c(C)ccc3C)cc2)c(=O)[nH]c1=O`
*A* class 0

*Q* Lookup `Cc1ccc(C)c(Cn2nnc3c(=O)[nH]c(C(=O)Nc4ccc(F)cc4)nc32)c1`
*A* class 0
